Target: Albumin (Bos taurus) (UniProt P02769)
Sequence (P02769 whole entry, looked up): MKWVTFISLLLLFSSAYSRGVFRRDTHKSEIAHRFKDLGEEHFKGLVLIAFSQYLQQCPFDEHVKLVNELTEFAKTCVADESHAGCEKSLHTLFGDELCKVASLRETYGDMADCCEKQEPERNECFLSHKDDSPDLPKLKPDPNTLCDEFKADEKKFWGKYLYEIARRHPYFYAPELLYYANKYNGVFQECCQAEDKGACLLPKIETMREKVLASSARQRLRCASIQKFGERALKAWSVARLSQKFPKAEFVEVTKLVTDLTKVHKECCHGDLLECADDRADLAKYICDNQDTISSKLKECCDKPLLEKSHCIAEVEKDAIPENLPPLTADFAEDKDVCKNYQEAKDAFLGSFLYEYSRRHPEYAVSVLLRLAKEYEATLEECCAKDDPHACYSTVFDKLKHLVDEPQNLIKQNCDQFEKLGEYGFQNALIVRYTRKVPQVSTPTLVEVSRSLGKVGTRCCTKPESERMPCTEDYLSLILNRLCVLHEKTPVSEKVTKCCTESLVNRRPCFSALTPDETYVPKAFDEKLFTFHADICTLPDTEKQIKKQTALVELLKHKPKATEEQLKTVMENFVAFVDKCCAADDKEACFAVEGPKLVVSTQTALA
Assay: bovine serum albumin binders on microarray, profiling panel, artefact control for SMM control protein annotation, biochemical, small-molecule microarray, Alexa647 label, 635/667 nm fluorescence (AID 1118);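 further: score merges 667 nm emission intensity and signal-to-noise per printed compound spot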
Settings: BSA-A647 binding, fluorescence 635 nm, higher = more signal
Exercise: for every item that follows, state its recorded composite z-score.

compound_structure_string=CCOC(=O)[C@H]1[C@@H]2C(=O)N3CCC[C@H]3[C@H](O[Si](C(C)C)(C(C)C)C(C)C)[C@H]2C=C2CCN(S(=O)(=O)c3ccc(C)cc3)C[C@H]21 target_entity="Albumin (Bos taurus) (UniProt P02769)" recorded_measurement=0.603

Dear colleague, could you send me composite z-score for each of the items below? Thanks.
1. O=C(NCCCCCNC(=O)/C(Cc1ccccc1)=N/O)OCc1ccccc1
2. COCCOC(=O)N1C(=O)[C@@]2(c3cc(C#CCCO)ccc31)[C@H](c1ccccc1OCCO)N1[C@H](c3ccccc3)[C@H](c3ccccc3)OC(=O)[C@H]1[C@@H]2C(=O)Nc1nc2ccccc2s1
3. COC(=O)c1nc2oc1CC[C@@H](CO)NC(=O)N(C)Cc1cnnn1C[C@H](Cc1ccccc1)NC2=O
4. CCOC(=O)C1=CC[C@@H](c2cccc(Cl)c2)N(S(=O)(=O)c2ccc(C)cc2)C1
5. O=C1O[C@@H](c2ccccc2)[C@@H](c2ccccc2)N2[C@@H](c3ccc(OCCO)cc3)[C@]3(C(=O)Nc4ccccc43)[C@@H](C(=O)O)[C@H]12
6. CCCCC(=C=CC[C@@H](O)c1ccccc1OCCO)C[C@@H](O)COCc1ccccc1
7. CCOC(=O)C[C@H]1[C@H](OC(=O)c2cc3ccccc3oc2=O)[C@@H](NC(=O)c2ccc(-c3ccccc3)cc2)c2cc(OCCCO)ccc2N1C(=O)c1ccccc1
8. COC(=O)[C@@]1(Cc2ccc(OC)cc2)[C@@H]2C(=CC(=O)[C@H]2CC(=O)C(=O)N(C)C)CN1C(=O)c1ccccc1

Result string:
1. -0.0396
2. 0.802
3. 0.771
4. 0.839
5. -0.0883
6. 0.338
7. 0.551
8. 0.982
